Target: human CD33 A272S (human, UniProt P20138 18-364)
Sequence (P20138 18-364 A272S limits assumed): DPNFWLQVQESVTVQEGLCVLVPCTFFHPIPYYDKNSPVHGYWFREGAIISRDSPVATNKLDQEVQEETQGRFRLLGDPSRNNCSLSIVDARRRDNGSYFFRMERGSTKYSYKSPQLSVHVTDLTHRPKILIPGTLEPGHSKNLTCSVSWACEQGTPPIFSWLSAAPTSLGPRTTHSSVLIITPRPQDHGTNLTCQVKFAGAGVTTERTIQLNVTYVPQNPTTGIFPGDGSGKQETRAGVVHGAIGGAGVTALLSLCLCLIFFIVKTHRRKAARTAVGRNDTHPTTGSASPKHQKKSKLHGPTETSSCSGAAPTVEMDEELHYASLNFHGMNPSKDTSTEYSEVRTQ
Assay: alanine scan, flow cytometry, HEK293-T;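 also: antibody binding to each alanine-substituted CD33 mutant expressed transiently in HEK293-T, read as fluorescence minus background, mean of duplicates, relative to wild-type CD33 set as 100%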
readout: Mean % WT Binding (% WT binding)
Please reply with the bare figure in % WT binding and do not write the unit itself.

Please fill in: Mean % WT Binding reported for Refmab #1 (antibody, V domains shown, The alanine scan used IgG or Fab; also called hP67.6) VH: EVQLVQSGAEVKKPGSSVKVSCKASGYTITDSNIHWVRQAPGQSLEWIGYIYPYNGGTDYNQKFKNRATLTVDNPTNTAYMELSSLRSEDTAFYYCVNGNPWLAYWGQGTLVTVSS VL: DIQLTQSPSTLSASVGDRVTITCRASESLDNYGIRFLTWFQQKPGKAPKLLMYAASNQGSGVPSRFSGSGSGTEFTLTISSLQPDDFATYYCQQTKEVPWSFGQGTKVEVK = 87.6
